Entry source: ChEMBL document CHEMBL3351548

- Procedure Details: Plasma protein binding in human 697 cells xenografted NOD.Cg-Prkdcscid Il2rgtm1Wjl/SzJ mouse at 3 mg/kg, po administered as single dose measured after 30 mins post dose
- Format: ADME, organism-based
- Design: dose 3 mg/kg, route oral
- Reported Conditions: read-out: PPB (converted)
Outcome Measure: fraction unbound at 0.5 h
// no unit, no text: just the number

Entry CCCCNc1ncc2c(-c3ccc(CN4CCN(C)CC4)cc3)cn([C@H]3CC[C@H](O)CC3)c2n1 needs its fraction unbound at 0.5 h filled in; supply it. 0.014

----------
- Procedure Details: Clearance in Swiss albino mouse at 1 mg/kg, iv
- Type: ADME, organism-based
- Design: dose 1 mg/kg, route intravenous
- Reported Conditions: in vivo
Outcome Measure: clearance

Entry CCCCNc1ncc2c(-c3ccc(S(=O)(=O)N4CCN(C)CC4)c(F)c3)cn([C@H]3CC[C@H](O)CC3)c2n1 needs its clearance filled in; supply it. 6.18 L/h/kg
